Source listed as the supplement of paper PMC11246515.

- Assay Protocol: total protein half-life in vivo (active degradation + dilution); higher = more stable protein
- Settings: E. coli NCM3722 delta-hslV; growth: N-lim chemostat; doubling time 6 h
The following sequences are shown together with reported total protein half-life in vivo values.
Give a bare numeral; the unit h is implied.

>  <Sequence Chain>
MKGRWVKYLLMGTVVAMLAACSSKPTDRGQQYKDGKFTQPFSLVNQPDAVGAPINAGDFAEQINHIRNSSPRLYGNQSNVYNAVQEWLRAGGDTRNMRQFGIDAWQMEGADNYGNVQFTGYYTPVIQARHTRQGEFQYPIYRMPPKRGRLPSRAEIYAGALSDKYILAYSNSLMDNFIMDVQGSGYIDFGDGSPLNFFSYAGKNGHAYRSIGKVLIDRGEVKKEDMSMQAIRHWGETHSEAEVRELLEQNPSFVFFKPQSFAPVKGASAVPLVGRASVASDRSIIPPGTTLLAEVPLLDNNGKFNGQYELRLMVALDVGGAIKGQHFDIYQGIGPEAGHRAGWYNHYGRVWVLKTAPGAGNVFSG [P0A935]

>  <Unit Abbreviation>
h

>  <total protein half-life in vivo>
3.87

$$$$

We now examine a further sequence.
Q: Param item = MTDVLLCVGNSMMGDDGAGPLLAEKCAAAPKGNWVVIDGGSAPENDIVAIRELRPTRLLIVDATDMGLNPGEIRIIDPDDIAEMFMMTTHNMPLNYLIDQLKEDIGEVIFLGIQPDIVGFYYPMTQPIKDAVETVYQRLEGWEGNGGFAQLAVEEE [P0AEV9] ; retrieve measured total protein half-life in vivo.
A: 3.67
